Each recorded value in this set is attributed to ChEMBL document CHEMBL1201862.

- System: HOP-18
- procedure summary: NCI tumour cell line growth inhibition, 48 h
Active and inactive are the calls of the source. No stated cut-off is given here; in the data, active = GI50 up to about 1.1 µM and inactive = higher.
Classes used: 1.0 = active, 0.0 = inactive

INSERT INTO assay_data (compound, qualitative_label) VALUES
  ('S=c1sc2c(Cl)nc(Cl)nc2n1-c1ccccc1', 0.0),
  ('Cc1ccc([N+](=O)[O-])cc1NC(=O)/C(=N/NC(=S)NN)C1SC(=S)NC1=O (stereo not given)', 0.0),
  ('O=C1OC(O)C(Oc2c(Cl)cccc2Cl)=C1Cl (stereo not given)', 0.0),
  ('CSC(=N\c1ccccc1)/N=C(\SCc1ccccc1)N(C)C', 1.0),
  ('CCCn1cc2c(O)nc(SC)nc2n1', 0.0),
  ('CC1(C)CC(=O)c2c(oc3cc(O)c(O)cc23)C1', 0.0),
  ('CC(C)C1NC(=O)CC(c2ccccc2)N(N=O)C1c1ccccc1 (stereo not given)', 0.0),
  ('CCOC(=O)CNC1C(NC(C)=O)C(OC)OC2COC(c3ccccc3)OC21 (stereo not given)', 0.0),
  ('COc1ccc(C=O)c([N+](=O)[O-])c1', 0.0),
  ('CC1=NOC(=O)/C1=C/c1ccccc1O', 0.0),
  ('CCCCCCCCCCCCCCCC(=O)OCC1OC(n2cc(F)c(=O)[nH]c2=O)C(NC(=O)N(CCCl)N=O)C(O)C1O (stereo not given)', 0.0),
  ('O=c1/c(=C/c2cccc3ccccc23)sc2nc3ccccc3n12', 0.0),
  ('C=CCC(C)(C(=O)NCCC)C(=O)c1ccccc1O (stereo not given)', 0.0),
  ('CC(C)=C1CCC(CN2CCOCC2)C1=O (stereo not given)', 0.0),
  ('CC(=O)NNc1nc(C)c(C(=O)NNC(=O)C(=O)Nc2ccc(C)cc2[N+](=O)[O-])s1', 0.0),
  ('c1ccc(COC2(OCc3ccccc3)CC3OC2C2NN=NC32)cc1 (stereo not given)', 0.0),
  ('O=C(O)CNS(=O)(=O)c1ccc(NC(=O)Nc2ccccc2)cc1', 0.0),
  ('COc1cc(Br)c(CC2(C#N)c3ccccc3C3C(N2C(=O)c2ccccc2)C3(Cl)Cl)cc1OC (stereo not given)', 0.0),
  ('CC(C(=O)c1ccccc1)C1(O)C(=O)Nc2ccccc21 (stereo not given)', 0.0),
  ('Nc1nc(N)c2ncn(CCCC(c3ccccc3)P(=O)(O)O)c2n1 (stereo not given)', 0.0);
